- system-under-test: Tubulin
- test: Displacement of MTC from tubulin
- Format: protein-complex assay, Homo sapiens
metric-name: Ka (M⁻¹)
Reply with just the number (in M⁻¹).

Consider the reported Ka for these compounds:
- smiles-text: "COc1cc(Sc2c[nH]c3ccc(I)cc23)cc(OC)c1OC"
  system-under-test: "Tubulin"
  metric-name: "Ka"
  endpoint-result: "2.31e+06"
- smiles-text: "COc1ccc2[nH]cc(Sc3cc(OC)c(OC)c(OC)c3)c2c1"
  system-under-test: "Tubulin"
  metric-name: "Ka"
  endpoint-result: "3.05e+06"
- smiles-text: "COC(=O)c1[nH]c2ccc(Cl)cc2c1Sc1cc(OC)c(OC)c(OC)c1"
  system-under-test: "Tubulin"
  metric-name: "Ka"
  endpoint-result: "1.3e+06"
- smiles-text: "COc1cc(Sc2c[nH]c3ccc(Cl)cc23)cc(OC)c1OC"
  system-under-test: "Tubulin"
  metric-name: "Ka"
  endpoint-result: 810000
- smiles-text: "COc1cc(Sc2c(C)[nH]c3ccccc23)cc(OC)c1OC"
  system-under-test: "Tubulin"
  metric-name: "Ka"
  endpoint-result: "5.5e+06"
- smiles-text: "COc1cc(Sc2c(C)[nH]c3ccc(Cl)cc23)cc(OC)c1OC"
  system-under-test: "Tubulin"
  metric-name: "Ka"
  endpoint-result: "2.07e+06"
- smiles-text: "COc1cc(Sc2c[nH]c3ccc(Br)cc23)cc(OC)c1OC"
  system-under-test: "Tubulin"
  metric-name: "Ka"
  endpoint-result: "2.76e+06"
- smiles-text: "COc1cc(Sc2c[nH]c3ccc(C)cc23)cc(OC)c1OC"
  system-under-test: "Tubulin"
  metric-name: "Ka"
  endpoint-result: "1.96e+06"
- smiles-text: "COc1ccc2[nH]c(C)c(Sc3cc(OC)c(OC)c(OC)c3)c2c1"
  system-under-test: "Tubulin"
  metric-name: "Ka"
  endpoint-result: "6.38e+06"
- smiles-text: "COc1cc(Sc2c[nH]c3ccccc23)cc(OC)c1OC"
  system-under-test: "Tubulin"
  metric-name: "Ka"
  endpoint-result: "5.21e+06"

(Q) Return reported Ka; argument: "COC(=O)c1[nH]c2ccccc2c1Sc1cc(OC)c(OC)c(OC)c1"
(A) 570000

(Q) Return reported Ka; argument: "COc1ccc(-c2ccc(OC)c(=O)cc2)c(OC)c1OC"
(A) 470000
